measurementName: melting point

CCCCCC(=O)Nc1ccc(C(=O)C[N+](=O)[O-])c(Cl)c1 [Example 20]	60 to 63 °C
N#Cc1ccccc1C(=O)C[N+](=O)[O-]	147 to 149 °C
O=C(Cc1ccccc1C(F)(F)F)Nc1ccc(C(=O)C[N+](=O)[O-])c(Cl)c1 [Example 30]	160 to 162 °C
O=C(C[N+](=O)[O-])c1ccccc1C(F)(F)F	55 to 57 °C
CCOc1ccccc1C(=O)C[N+](=O)[O-]	145 to 148 °C

Sample O=C(Cc1ccccc1)Nc1ccc(C(=O)C[N+](=O)[O-])c(Cl)c1 [Example 24] — what was its melting point?
121 to 124 °C

Sample `CC(C)Oc1ccccc1C(=O)C[N+](=O)[O-]` — what was its melting point?
78 to 80 °C

Sample O=C(C[N+](=O)[O-])c1ccc(Sc2ccccc2)cc1Cl [Example 64] — what was its melting point?
77 to 78 °C

###

# IC50 per entry for aldose reductase (Rattus norvegicus)
measurementName: IC50 (nM)

Examples with their reported IC50 follow.
O=C(Cc1ccccc1)Nc1ccc(C(=O)C[N+](=O)[O-])c(Cl)c1	7
O=C(Cc1ccccc1Cl)Nc1ccc(C(=O)C[N+](=O)[O-])c(Cl)c1	7
CC(C(=O)Nc1ccc(C(=O)C[N+](=O)[O-])c(Cl)c1)c1ccccc1 (centres unmarked)	7

A = O=C(C[N+](=O)[O-])c1ccccc1OC(F)(F)F
B = O=C(Cc1ccccc1C(F)(F)F)Nc1ccc(C(=O)C[N+](=O)[O-])c(Cl)c1
Parameter metric = IC50. Return the lower-valued option from A and B . // output: label of the selected item
B
(B: 7 nM, A: 41 nM)

###

Measured melting point accompanies every entry in the list below.

Sample `CCc1ccccc1C(=O)C[N+](=O)[O-]` — what was its melting point?
62 to 63 °C

Sample `CC(=O)Nc1cccc(C(=O)C[N+](=O)[O-])c1Cl` — what was its melting point?
140 to 142 °C

Sample `Cc1ccccc1CC(=O)Nc1ccc(C(=O)C[N+](=O)[O-])cc1Br` — what was its melting point?
125 to 127 °C

Sample `O=C(C[N+](=O)[O-])c1cc(NS(=O)(=O)c2ccccc2)ccc1Cl` — what was its melting point?
152 to 154 °C

Sample CC(C(=O)Nc1ccc(C(=O)C[N+](=O)[O-])c(Cl)c1)c1ccccc1 (centres unmarked) — what was its melting point?
136 to 137 °C
